B1: Hairpin Ribozyme (parent)
chain: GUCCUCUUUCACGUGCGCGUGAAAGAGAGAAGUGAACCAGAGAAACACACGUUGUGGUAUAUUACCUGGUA

variants of: B1; assay: self-cleavage, relative activity (ratio to wild type); higher = more cleavage; co-transcriptional
Listed next: entries and their corresponding self-cleavage.
measure name: self-cleavage

>  <variant descriptor>
G25C C38U

>  <result>
0.263

$$$$
>  <variant descriptor>
A22U U70A

>  <result>
0.768

$$$$
>  <variant descriptor>
G19U G54U

>  <result>
0.497

$$$$
>  <variant descriptor>
A28U C50U

>  <result>
0.1

$$$$
>  <variant descriptor>
G42C G56A

>  <result>
0.155

$$$$
>  <variant descriptor>
A23C G54C

>  <result>
0.337

$$$$
>  <variant descriptor>
U20C C48G

>  <result>
0.104

$$$$
>  <variant descriptor>
U60G C66A

>  <result>
0.0537

$$$$
>  <variant descriptor>
G1A G32C

>  <result>
0.318

$$$$
>  <variant descriptor>
C12A C18G

>  <result>
0.872

$$$$
>  <variant descriptor>
A24U G57C

>  <result>
0.181

$$$$
>  <variant descriptor>
G56C U58G

>  <result>
0.234

$$$$
>  <variant descriptor>
A30U A47U

>  <result>
0.0724

$$$$
>  <variant descriptor>
A61G G69A

>  <result>
0.16

$$$$
>  <variant descriptor>
G32U U63A

>  <result>
0.172

$$$$
>  <variant descriptor>
A11C A22U

>  <result>
0.554

$$$$
>  <variant descriptor>
C38U A41G

>  <result>
0.648

$$$$
>  <variant descriptor>
U63A U70A

>  <result>
0.0404

$$$$
>  <variant descriptor>
C6U U67G

>  <result>
0.271

$$$$
>  <variant descriptor>
A11G G17C

>  <result>
0.571

$$$$
>  <variant descriptor>
C10A G68U

>  <result>
0.201

$$$$
>  <variant descriptor>
G27A U58G

>  <result>
0.151

$$$$
>  <variant descriptor>
C6G G54A

>  <result>
0.28

$$$$
>  <variant descriptor>
A36U A47G

>  <result>
0.172

$$$$
>  <variant descriptor>
C6A G19C

>  <result>
0.55

$$$$
>  <variant descriptor>
A30U G42C

>  <result>
0.114

$$$$
>  <variant descriptor>
A30G A35C

>  <result>
0.141

$$$$
>  <variant descriptor>
U20A G57C

>  <result>
0.215

$$$$
>  <variant descriptor>
A23C A61C

>  <result>
0.143

$$$$
>  <variant descriptor>
A22U A47U

>  <result>
0.202

$$$$
>  <variant descriptor>
A35U C48U

>  <result>
0.162

$$$$
>  <variant descriptor>
A43G G57A

>  <result>
0.198

$$$$
>  <variant descriptor>
G54C A64U

>  <result>
0.155

$$$$
>  <variant descriptor>
C10U G56C

>  <result>
0.25

$$$$
